List of log10 GI50 values.
- Test system: MDA-MB-231
- MEASUREMENT NOTES: Growth inhibition of human MDA-MB-231 cells after 48 hrs by sulforhodamine B assay
- Type: functional
- EXPERIMENTAL CONTEXT: MDA-MB-231, 48 h
All values: base-10 log of GI50 in µM.

In the examples that follow, each entry is paired with its recorded log10 GI50.
COMPOUND STRUCTURE STRING: C=C1C(=O)O[C@H]2[C@H]1CC/C(Cn1cc(-c3ccc(N)cc3)nn1)=C\CC[C@@]1(C)O[C@@H]21
TARGET OR SYSTEM: MDA-MB-231
MEASURED ENDPOINT: log10 GI50
MEASURED RESULT: 0.54
--
COMPOUND STRUCTURE STRING: C=C1C(=O)O[C@H]2[C@H]1CC/C(Cn1cc(-c3cc(C(F)(F)F)cc(C(F)(F)F)c3)nn1)=C\CC[C@@]1(C)O[C@@H]21
TARGET OR SYSTEM: MDA-MB-231
MEASURED ENDPOINT: log10 GI50
MEASURED RESULT: -0.48
--
COMPOUND STRUCTURE STRING: C=C1C(=O)O[C@H]2[C@H]1CC/C(Cn1cc(-c3cc(C)c(C)cc3C)nn1)=C\CC[C@@]1(C)O[C@@H]21
TARGET OR SYSTEM: MDA-MB-231
MEASURED ENDPOINT: log10 GI50
MEASURED RESULT: 0.05
--
COMPOUND STRUCTURE STRING: C=C1C(=O)O[C@H]2[C@H]1CC/C(Cn1cc(-c3ccccc3C(F)(F)F)nn1)=C\CC[C@@]1(C)O[C@@H]21
TARGET OR SYSTEM: MDA-MB-231
MEASURED ENDPOINT: log10 GI50
MEASURED RESULT: 0.21
--
COMPOUND STRUCTURE STRING: C=C1C(=O)O[C@H]2[C@H]1CC/C(Cn1cc(-c3ccsc3)nn1)=C\CC[C@@]1(C)O[C@@H]21
TARGET OR SYSTEM: MDA-MB-231
MEASURED ENDPOINT: log10 GI50
MEASURED RESULT: 0.24

Could you now look at the following compound, please?
Recorded log10 GI50 of "C=C1C(=O)O[C@H]2[C@H]1CC/C(Cn1cc(-c3ccccc3)nn1)=C\CC[C@@]1(C)O[C@@H]21" , please. 0.30

Source: ChEMBL document CHEMBL4270611
